Exercise: state measured pIC50 for each of the molecules provided.
target.system: Cdk6/CyclinD3 (Homo sapiens (Human))
Sequence (Q00534 whole entry): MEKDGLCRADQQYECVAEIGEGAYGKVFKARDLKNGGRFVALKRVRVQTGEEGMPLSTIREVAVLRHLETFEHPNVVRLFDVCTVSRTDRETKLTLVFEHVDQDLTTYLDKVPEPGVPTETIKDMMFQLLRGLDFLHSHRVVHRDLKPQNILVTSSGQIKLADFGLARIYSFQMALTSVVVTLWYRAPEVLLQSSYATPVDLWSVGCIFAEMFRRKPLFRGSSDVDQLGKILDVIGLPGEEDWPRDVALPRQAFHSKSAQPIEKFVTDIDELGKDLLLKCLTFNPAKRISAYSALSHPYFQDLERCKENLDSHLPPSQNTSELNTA
Sequence (P30281 whole entry partner): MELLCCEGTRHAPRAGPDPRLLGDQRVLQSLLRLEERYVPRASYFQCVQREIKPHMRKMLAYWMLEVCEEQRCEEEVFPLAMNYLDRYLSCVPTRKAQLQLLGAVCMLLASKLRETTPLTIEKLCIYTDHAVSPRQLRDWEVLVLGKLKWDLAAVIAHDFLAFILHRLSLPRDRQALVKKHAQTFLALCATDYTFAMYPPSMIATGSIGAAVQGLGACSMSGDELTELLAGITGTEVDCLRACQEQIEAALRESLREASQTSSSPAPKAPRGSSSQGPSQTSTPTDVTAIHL
method: Cdk6 kinase inhibition assay with recombinant Cdk6/CyclinD3, Rb substrate, [33P]-ATP filter plate
test.context: 25 μM ATP, read-out: Cdk 6 IC50
Numbers only, as −log10 of the molar value.

Example entries and their recorded answers appear below.
• c1cc2c3cnc(Nc4ccc(N5CCC(N6CCCC6)CC5)nn4)nc3n(C3CCCC3)c2cn1 [Example 437] = 7.52
• CN(C)[C@H]1CCN(c2ccc(Nc3ncc4c5ccncc5n(C5CCCC5)c4n3)nc2)C1 [Example 288] = 7.40
• CN(C)CCCN(C)c1ccc(Nc2ncc3c4ccncc4n(C4CCCC4)c3n2)nn1 [Example 290] = 7.07
• CNCCN(C)C1CCN(c2ccc(Nc3ncc4c5ccncc5n(C5CCCC5)c4n3)nn2)CC1 [Example 443] = 7.80

Look up pIC50 for the entries below, preserving their order.
1. COC(=O)CNC1CCN(c2ccc(Nc3ncc4c5ccncc5n(C5CCCC5)c4n3)nc2)CC1 [Example 472]
2. CC1CN(c2ccc(Nc3ncc4c5ccccc5n(C5CCCC5)c4n3)nn2)CC(C)N1 (stereo not drawn) [Example 306]
3. C[C@@H](CO)NC1CCN(c2ccc(Nc3ncc4c5ccncc5n(C5CCCC5)c4n3)nc2)CC1 [Example 475]
4. C[C@H](O)CNC1CCN(c2ccc(Nc3ncc4c5ccncc5n(C5CCCC5)c4n3)nc2)CC1 [Example 459]
5. OCCCn1c2cnccc2c2cnc(Nc3ccc(N4CC[C@@H](O)C4)nn3)nc21 [Example 353]
6. C[C@H]1CN(c2ccc(Nc3ncc4c5ccncc5n(C5CCCC5)c4n3)nn2)CCN1 [Example 9]
7. C[C@@H](O)Cn1c2cnccc2c2cnc(Nc3ccc(N4CC[C@@H](O)C4)cn3)nc21 [Example 358]

result:
1: 7.47; 2: 7.41; 3: 8.10; 4: 7.85; 5: 6.99; 6: 7.71; 7: 6.23

query: Recorded pIC50 for C[C@H]1CN(c2ccc(Nc3ncc4c5ccccc5n(C5CCCC5)c4n3)nn2)CCN1 [Example 302] , please?
result: 7.64
